All figures here come from patent US20260285877A1.

method-description: Pharmacokinetic experiment in mice
Type: in vivo
condition: mouse, plasma; ICR mice, PO 10 mg/kg (IV 2 mg/kg); read-out: Oral F
property-measured: bioavailability (%)
Numbers only, in %.

The reported value for `CCS(=O)(=O)C[C@H]1CCN(c2nn3c4cc(ncc24)Nc2ccnc(n2)-c2cnn(C)c2OCC2(CCCC2)C3)C1` in terms of bioavailability is 81.5

###

Tested on: Ba/F3 EGFR-L858R-C797S (LC)
method-description: Cell proliferation assay (CellTiter-Glo), Ba/F3 EGFR-L858R-C797S
Type: cell-based
condition: Mus musculus, BaF3; Ba/F3 EGFR-L858R-C797S cells, 72 hour incubation, CTG
property-measured: pIC50
Give bare numbers, as −log10 of the molar value.

# pIC50 of `CC(=O)N[C@@H]1CCN(c2nn3c4cc(ncc24)Nc2ccnc(n2)-c2cnn(C)c2OCC2(CCCC2)C3)C1` = 7.22
